src = patent US9670227B2

# system_tested: Mcl-1 protein (UniProtKB primary accession number: Q07820) (Homo sapiens, UniProt Q07820)
# Sequence (Q07820 whole entry): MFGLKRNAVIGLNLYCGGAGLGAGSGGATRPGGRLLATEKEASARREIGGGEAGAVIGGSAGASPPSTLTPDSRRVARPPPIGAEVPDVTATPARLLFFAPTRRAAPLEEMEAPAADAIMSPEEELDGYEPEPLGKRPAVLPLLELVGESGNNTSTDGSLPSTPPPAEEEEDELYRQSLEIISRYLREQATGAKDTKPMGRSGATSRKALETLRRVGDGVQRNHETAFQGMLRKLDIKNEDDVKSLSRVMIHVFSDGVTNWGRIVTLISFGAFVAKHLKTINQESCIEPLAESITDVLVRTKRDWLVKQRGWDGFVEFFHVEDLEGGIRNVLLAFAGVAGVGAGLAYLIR
# assay_procedure: Inhibition of Mcl-1 by fluorescence polarisation, Method 1
# Assay type: binding
# recorded_conditions: fluorescence polarisation; Method 1, or Method 2; read-out: IC50 (M) Mcl-1 FP
# Procedure: The relative binding potency of each compound was determined via Fluorescence Polarisation (FP). An 11 point serial dilution of each compound was prepared in DMSO and 2 μl transferred into flat bottomed, low binding, 384-well plate (final DMSO concentration 5%). […]

compound	unit_of_measurement	IC50
CC#Cc1sc2ncnc(OC(Cc3ccccc3OC)C(=O)O)c2c1-c1cc(F)c(OCCN2CCN(C)CC2)c(Cl)c1C (stereo not shown)	M	2e-08
COc1ccccc1CC(Oc1ncnc2sc(-c3cccc(F)c3F)c(-c3ccc(OCCN4CCN(C)CC4)c(Cl)c3C)c12)C(=O)O (stereo not shown)	M	1.1e-08
CC#Cc1sc2ncnc(OC(Cc3ccccc3OCc3ccnc(CCOC)n3)C(=O)O)c2c1-c1ccc(OCCN2CCN(C)CC2)c(Cl)c1C (stereo not shown)	M	3.4e-09
CCc1sc2ncnc(OC(Cc3ccccc3)C(=O)O)c2c1-c1ccc(OCc2ccccc2)c(Cl)c1C (stereo not shown)	M	3.4e-08
Cc1c(-c2c(-c3ccc(F)cc3)sc3ncnc(O[C@H](Cc4ccccc4OCc4ccnc(-c5ccccc5O)n4)C(=O)O)c23)ccc(OCCN2CCNCC2)c1Cl	M	8.24e-09
COc1ccccc1CC(Oc1ncnc2sc(-c3ccc(F)c(O)c3)c(-c3ccc(OCCN4CCN(C)CC4)c(Cl)c3C)c12)C(=O)O (stereo not shown)	M	1.6e-08
Cc1cscc1-c1sc2ncnc(O[C@H](Cc3ccccc3)C(=O)O)c2c1-c1ccc(OCCN2CCN(C)CC2)c(Cl)c1C	M	1.3e-07
CC#Cc1sc2ncnc(OC(Cc3ccccc3OCc3ccnn3CC(F)(F)F)C(=O)O)c2c1-c1ccc(OCCN2CCN(C)CC2)c(Cl)c1C (stereo not shown)	M	1.2e-09
COc1ccccc1Cn1nccc1COc1ccccc1CC(Oc1ncnc2sc(-c3ccc(F)cc3)c(-c3ccc(OCCN4CCN(C)CC4)c(Cl)c3C)c12)C(=O)O (stereo not shown)	M	2.32e-09
CCc1sc2ncnc(OC(Cc3ccccc3)C(=O)O)c2c1-c1ccc(OCCN(C)C)cc1C (stereo not shown) [Example 409]	M	2e-07
Cc1c(-c2c(-c3ccc(F)cc3)sc3ncnc(OC(Cc4ccccc4)C(=O)O)c23)ccc(OCCN2CCN(C)CC2)c1Cl (stereo not shown)	M	7.4e-08
COc1ccccc1CC(Oc1ncnc2sc(-c3ccsc3)c(-c3ccc(O)c(Cl)c3C)c12)C(=O)O (stereo not shown)	M	1.6e-09
CCc1sc2ncnc(OC(Cc3ccccc3)C(=O)O)c2c1-c1ccc(OCCN(CCO)CCO)c(Cl)c1C (stereo not shown)	M	5.1e-08

* * *

# Tested on: H929 multiple myeloma tumour line
# assay_procedure: In vitro cytotoxicity, Microculture Tetrazolium Assay
# Format: cell-based
# recorded_conditions: Homo sapiens, NCI-H929, 48 h, H929 cells, 48 hours exposure, MTT; read-out: IC50 (μM) MTT H929
// IC50 lookup, one value per entry

molecule	unit_of_measurement	IC50
Cc1c(-c2c(-c3ccc(F)cc3)sc3ncnc(OC(Cc4ccccc4OCc4ncncc4Br)C(=O)O)c23)ccc(OCCN2CCN(C)CC2)c1Cl (stereo not shown) [Example 101]	µM	0.398
CCn1nccc1COc1ccccc1CC(Oc1ncnc2sc(-c3ccc(F)c(OC)c3)c(-c3ccc(OCCN4CCN(C)CC4)c(Cl)c3C)c12)C(=O)O (stereo not shown) [Example 384]	µM	0.053
Cc1c(-c2c(-c3ccc(F)cc3)sc3ncnc(OC(Cc4ccccc4OCc4ccnc(C(C)C)n4)C(=O)O)c23)ccc(OCCN2CCN(C)CC2)c1Cl (stereo not shown) [Example 24]	µM	0.012
Cc1c(-c2c(-c3ccco3)sc3ncnc(OC(Cc4ccccc4OCc4ccccc4)C(=O)O)c23)ccc(OCCN2CCN(C)CC2)c1Cl (stereo not shown) [Example 240]	µM	0.225
